assay: chemical genetic growth profiling, strain panel (AID 1159580);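 note: tested at 20 µM; growth read once vehicle control cultures reached saturation at 30 °C; 1 = growth at the plate median or of vehicle wells; lower values mean less growth of the strain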; conditions: S. cerevisiae deletion strains, growth OD, locus YNL250W, strain rad50, hits give low values
The whole screen tested about 5,500 compounds, of which about 2,000 (36%) were called active. Inconclusive results (about 18%) are left out. The list shows a part of the results.
normalized growth by entry:
Parameter: normalized growth

                                   compound  recorded_measurement
0  CC1(C)CCC[C@@]2(C)C1[C@@H](O)C[C@]1(C)C2CC[C@@H]2[C@@]3(C)CC[C@H](C(C)(C)O)[C@@H]3CC[C@@]21C (some centres undefined)      0.982 (inactive)
1  O=C1c2ccc(O)cc2O[C@H](c2cc(O)c(O)c(O)c2)[C@H]1O       1.01 (inactive)
2  C=C[C@@](C)(O)CCC1C(=C)CCC2[C@@](C)(CO)CCC[C@]12C (some centres undefined)      0.995 (inactive)
3  CC(=O)S[C@@H]1CC2=CC(=O)CC[C@]2(C)[C@H]2CC[C@@]3(C)[C@@H](CC[C@@]34CCC(=O)O4)C12 (some centres undefined)       1.02 (inactive)

====

experiment: chemical genetic growth profiling, strain panel (AID 1159580);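 note: tested at 20 µM; growth read once vehicle control cultures reached saturation at 30 °C; 1 = growth at the plate median or of vehicle wells; lower values mean less growth of the strain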; details: S. cerevisiae deletion strains, growth OD, locus YLR371W, strain rom2, hits give low values
The campaign covered roughly 5,500 compounds. About 2,000 (36%) were called active. Inconclusive results (about 18%) are left out. The list shows a part of the results.
normalized growth by entry:
Parameter: normalized growth

In [3]: df
Out[3]:
                                   compound  recorded_measurement
0  COc1ccc2c(c1)OC1(O)COc3cc(OC)c(OC)cc3C1=C2 (stereo not drawn)                  0.99
1  CC1CCc2cc(F)cc3c(=O)c(C(=O)O)cn1c23 (stereo not drawn)                 0.965
2                             O=S(=O)(O)CCS                 0.996

====

experiment: chemical genetic growth profiling, strain panel (AID 1159580);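 note: tested at 20 µM; growth read once vehicle control cultures reached saturation at 30 °C; 1 = growth at the plate median or of vehicle wells; lower values mean less growth of the strain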; details: S. cerevisiae deletion strains, growth OD, locus YLR039C, strain RIC1, hits give low values
In all, about 5,500 compounds went through this assay and about 2,000 (36%) were called active. Not shown: some 18% with an inconclusive outcome. The list shows a part of the results.
Parameter: normalized growth

Compound	Parameter	Recorded Measurement
CC[C@H]1OC(=O)[C@H](C)[C@@H](O[C@H]2C[C@@](C)(OC)[C@@H](O)[C@H](C)O2)[C@H](C)[C@@H](O[C@@H]2O[C@H](C)C[C@H](N(C)C)[C@H]2O)[C@](C)(OC)C[C@@H](C)C(=O)[C@H](C)[C@@H](O)[C@]1(C)O	normalized growth	0.979 (inactive)
O=C(O)c1cc2cc(F)ccc2[nH]1	normalized growth	1.02 (inactive)
COc1ccc(-c2coc3cc(O)ccc3c2=O)c(OC)c1	normalized growth	0.976 (inactive)
NCCC(O)C(=O)NC1CC(N)C(OC2OC(CN)C(O)C(O)C2N)C(OC2OC(CO)C(O)C2O)C1O (configuration not stated)	normalized growth	1.02 (inactive)
CSc1nc2ccccc2[nH]1	normalized growth	1.01 (inactive)
Cc1nn(C)c(C)c1[N+](=O)[O-]	normalized growth	0.998 (inactive)
N#CCCN(CC1CCCO1)C(=S)Nc1cc(C(F)(F)F)cc(C(F)(F)F)c1 (configuration not stated)	normalized growth	0.86 (inactive)
CC1(C)CCC[C@@]2(C)C1[C@@H](O)C[C@]1(C)C2CC[C@@H]2[C@@]3(C)CC[C@H](C(C)(C)O)[C@@H]3CC[C@@]21C (some centres not stated)	normalized growth	1.05 (inactive)
Oc1cc(O)c2c(c1)O[C@H](c1ccc(O)c(O)c1)[C@@H](O)C2	normalized growth	0.919 (inactive)
COc1ccc2c(c1)OC1(O)COc3cc(OC)c(OC)cc3C1=C2 (configuration not stated)	normalized growth	0.974 (inactive)
OCC(O)CN1CCN(c2ccccc2)CC1 (configuration not stated)	normalized growth	1.04 (inactive)
O=C(O)/C=C/c1ccc(O)c(O)c1	normalized growth	1.01 (inactive)
COc1cc(CNC(=O)CCCC/C=C/C(C)C)ccc1O	normalized growth	1.07 (inactive)
CN(C)C=Nc1ncccc1OCc1ccc(Cl)c(Cl)c1	normalized growth	1.05 (inactive)
COc1cc2nc(N(C)CCCNC(=O)C3CCCO3)nc(N)c2cc1OC (configuration not stated)	normalized growth	1.07 (inactive)
COc1ccc(C(CN(C)C)C2(O)CCCCC2)cc1 (configuration not stated)	normalized growth	1.05 (inactive)
Cc1ccc(C)n1-c1ccc(C(=O)NNC(=O)c2ccc3nccnc3c2)cc1	normalized growth	1.01 (inactive)
C=C[C@@](C)(O)CCC1C(=C)C[C@H](O)C2C(C)(C)CCCC12C (some centres not stated)	normalized growth	0.949 (inactive)
CC[C@@]1(O)C[C@H](O)c2c(cc3c(c2O)C(=O)c2c(O)ccc(O)c2C3=O)[C@H]1C(=O)OC	normalized growth	0.395 (active)
CC[C@@H](C(=O)C(C)[C@@H](O)[C@H](C)CCc1ccc(C)c(O)c1C(=O)O)C1OC(CC)(C2CC[C@](O)(CC)[C@H](C)O2)C[C@@H]1C (some centres not stated)	normalized growth	1.26 (inactive)
CC(=O)O[C@H]1C[C@@H](OC(C)=O)C(C)(C)C2CC(=O)[C@]3(C)C(CC[C@@]4(C)[C@H](C(=O)O)OC(=O)C5OC543)[C@]21C (some centres not stated)	normalized growth	1.06 (inactive)
COC(=O)/C=C/C(C)=C/C=C/C(C)=C/C=C/C=C(C)/C=C/C=C(C)/C=C/C(=O)O	normalized growth	1.08 (inactive)
COc1ccccc1-c1coc2cc(O)ccc2c1=O	normalized growth	1.03 (inactive)
c1ccc2c(c1)CCCC2C1=NCCN1 (configuration not stated)	normalized growth	1.03 (inactive)
CC(C)NCC(O)COc1cccc2[nH]ccc12 (configuration not stated)	normalized growth	0.962 (inactive)
COc1ccc(C(c2ccc(OC)cc2)C(Cl)(Cl)Cl)cc1	normalized growth	1.01 (inactive)
CCCCCCCCCCCCN1CNC(=S)NC1	normalized growth	0.985 (inactive)

====

assay: chemical genetic growth profiling, strain panel (AID 1159580);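 note: tested at 20 µM; growth read once vehicle control cultures reached saturation at 30 °C; 1 = growth at the plate median or of vehicle wells; lower values mean less growth of the strain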; details: S. cerevisiae deletion strains, growth OD, locus YNL322C, strain KRE1, hits give low values
Out of some 5,500 compounds screened, about 2,000 (36%) were called active. About 18% were inconclusive and are not listed. This is one part of the list.

Compound	normalized growth
Nc1cc(=O)[nH]c(N)n1	1
CN1CC(CO)=C[C@@H]2c3cccc4[nH]cc(c34)C[C@H]21	0.982
C=C[C@@](C)(O)CCC1C(=C)C[C@H](O)C2C(C)(C)CCCC12C (stereo partly specified)	1.01
Clc1ccc(C(OCCN2CCCCC2)c2ccccc2)cc1 (stereo unspecified)	1.01
CC(C)NC[C@H](O)COc1cccc2[nH]ccc12	0.999
C/C(=C\C(=O)Nc1ccc(F)cc1)Nc1ccc(F)cc1	1
Cc1nc(N)ncc1Sc1ccccc1	0.982
Cc1oc(C(C)(C)C)cc1C(=O)Nc1ccc([N+](=O)[O-])cc1	0.996
S=C1NCN(CCN2CCCC2)CN1	0.995
COc1cc(OC)c2c(c1)O[C@H](c1cc(OC)c(OC)c(OC)c1)[C@H](OC(=O)c1cc(OC)c(OC)c(OC)c1)C2	1
CC1(C)CCC[C@@]2(C)C1[C@@H](O)C[C@]1(C)C2CC[C@@H]2[C@@]3(C)CC[C@H](C(C)(C)O)[C@@H]3CC[C@@]21C (stereo partly specified)	1
O=[N+]([O-])c1ccc(OCCO)c([N+](=O)[O-])c1	0.982
COc1ccc2c(c1)OC1(O)COc3cc(OC)c(OC)cc3C1=C2 (stereo unspecified)	1
Cc1ncc(CNC(=O)N(CCCl)N=O)c(N)n1	1.01
CCOC(=O)CNc1ccc(F)cc1	0.999
CC[C@@H](C(=O)C(C)[C@@H](O)[C@H](C)CCc1ccc(C)c(O)c1C(=O)O)C1OC(CC)(C2CC[C@](O)(CC)[C@H](C)O2)C[C@@H]1C (stereo partly specified)	1.02
CN(C)C=Nc1ncccc1OCc1ccc(Cl)c(Cl)c1	0.978
Cn1c2c(c(=O)n(C)c1=O)CN(CCCCCCO)CN2	0.998
CC[C@H]1OC(=O)[C@H](C)[C@@H](O[C@H]2C[C@@](C)(OC)[C@@H](O)[C@H](C)O2)[C@H](C)[C@@H](O[C@@H]2O[C@H](C)C[C@H](N(C)C)[C@H]2O)[C@](C)(OC)C[C@@H](C)C(=O)[C@H](C)[C@@H](O)[C@]1(C)O	0.987
C[C@]12CCC(=O)C=C1C=CC1C2CC[C@@]2(C)C1CC[C@@]21CCC(=O)O1 (stereo partly specified)	0.997
C/C=C(\C)C(=O)O[C@H]1C[C@@H](OC(C)=O)[C@@]2(C(=O)OC)CO[C@@H]3C2[C@]12CO[C@](O)(C(=O)OC)[C@H]2[C@](C)(C12O[C@@]1(C)[C@H]1C[C@@H]2OC2OC=C[C@@]21O)[C@@H]3O (stereo partly specified)	0.995
Nc1nc(=S)c2[nH]cnc2[nH]1	1.02
c1ccc2c(c1)CCCC2C1=NCCN1 (stereo unspecified)	1.01
C[C@H](Cc1ccccc1)Nc1ncnc2c1ncn2[C@@H]1O[C@H](CO)[C@H](O)C1O (stereo partly specified)	0.996
COc1cc(CC(=O)O)ccc1O	0.987
CCCCNC(=O)NS(=O)(=O)c1ccc(C)cc1	0.992
CC(=O)Oc1cc(OC(C)=O)c2c(c1)O[C@H](c1ccc(OC(C)=O)c(OC(C)=O)c1)[C@@H](OC(C)=O)C2	0.998
CCN1CCCC(OC(=O)C(c2ccccc2)c2ccccc2)C1 (stereo unspecified)	1.01
O=S(=O)(O)CCS	1.01
COC(=O)c1ccc(Cl)cc1NS(=O)(=O)c1ccc(OC)c(OC)c1	1
NC(=O)c1ccc[n+]([C@@H]2O[C@H](COP(=O)([O-])OP(=O)(O)OC[C@H]3O[C@@H](n4cnc5c(N)ncnc54)[C@H](OP(=O)(O)O)[C@@H]3O)[C@@H](O)[C@H]2O)c1	1.01
